Reported phosphorylation enrichment values follow for various sequences
# study_system: MERTK (UniProt Q12866)
# Sequence (Q12866 whole entry, looked up): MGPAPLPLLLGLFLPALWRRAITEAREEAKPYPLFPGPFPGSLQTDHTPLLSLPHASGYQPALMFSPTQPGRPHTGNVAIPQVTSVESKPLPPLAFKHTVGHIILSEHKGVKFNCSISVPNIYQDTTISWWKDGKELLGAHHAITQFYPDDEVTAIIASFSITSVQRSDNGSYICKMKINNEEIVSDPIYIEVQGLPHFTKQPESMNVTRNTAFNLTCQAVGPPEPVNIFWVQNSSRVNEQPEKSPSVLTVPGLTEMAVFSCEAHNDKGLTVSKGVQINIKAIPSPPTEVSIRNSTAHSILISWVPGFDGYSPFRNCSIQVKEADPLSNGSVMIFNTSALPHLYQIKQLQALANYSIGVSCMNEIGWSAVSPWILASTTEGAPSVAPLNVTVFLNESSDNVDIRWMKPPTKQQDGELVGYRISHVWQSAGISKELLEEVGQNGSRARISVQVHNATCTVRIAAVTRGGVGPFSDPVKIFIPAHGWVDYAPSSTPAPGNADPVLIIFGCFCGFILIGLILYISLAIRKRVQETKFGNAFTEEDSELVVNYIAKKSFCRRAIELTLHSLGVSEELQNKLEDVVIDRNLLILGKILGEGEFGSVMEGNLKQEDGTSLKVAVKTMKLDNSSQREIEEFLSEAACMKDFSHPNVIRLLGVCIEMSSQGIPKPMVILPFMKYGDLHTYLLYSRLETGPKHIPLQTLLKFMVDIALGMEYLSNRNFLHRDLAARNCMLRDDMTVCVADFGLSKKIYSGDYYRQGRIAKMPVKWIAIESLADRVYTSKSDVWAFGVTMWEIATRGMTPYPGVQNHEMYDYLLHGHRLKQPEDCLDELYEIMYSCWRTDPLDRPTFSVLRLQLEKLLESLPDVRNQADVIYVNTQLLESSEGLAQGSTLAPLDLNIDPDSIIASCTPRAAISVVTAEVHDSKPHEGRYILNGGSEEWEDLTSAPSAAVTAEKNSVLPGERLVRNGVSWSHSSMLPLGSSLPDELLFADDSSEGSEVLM
# assay_name: phosphorylation enrichment, bacterial display (enrichment ratio); higher = better substrate or ligand; peptides without Tyr show the background;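 further: 11-residue human phosphosite peptides and single-mutation variants displayed on the E. coli surface, counted by deep sequencing, each peptide's frequency after selection divided by its frequency in the unselected input library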;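 further: frequency after pTyr selection over input frequency; kinase dosed for 20-30% of maximal phosphorylation in three min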

query_sequence	phosphorylation enrichment
SGVSFYINLCQ [IGF2R_Y2025_N2020S_YF]	0.686
LREKVYASLEA [RXRA_Y397]	2.22
KRISCYEASYQ [PFKFB3_Y194]	0.493
DNQFAYLKAII [HNF4A_Y288_E285Q_YF]	0.369
LGKLTYPVGFW [NTHL1_Y177_I176T]	0.889
PADCRYYAFPQ [GAMT_Y222]	14.4
NSRYTCKLEVK [USH2A_Y3747_Y3747C]	0.387
TSKLNYLDPRI [TOP1_Y723]	0.359
PLDNLYAEPAV [PRPS1_Y146_V142L]	8.88
NTDETYSIDNE [TUBB2B_Y200_C201S]	0.5
ENFDDYMKDVG [FABP4_Y20_E23D]	0.52
QRAADYYSQQM [GBP6_Y333]	0.813
SVVVPYEPPGV [TP53_Y220_E224G]	0.485
FDDDDYDTDFV [BLM_Y296]	0.509
DVFLKYLNFAT [PDE6B_Y212]	0.647
YKPGFYNLKEK [LAMA1_Y490_C485Y]	0.366
ASTDYNKRGDF [PDHA1_Y243_Y243N]	0.405
KLLPEYPGVLS [DHFR2_Y163]	0.385
DEIPLYLKGGV [COX7A2_Y44]	0.391
FSAPNYCYRCG [PPP2CA_Y265]	0.423
CPEARYNRSPI [PTAR1_Y42]	0.433
GQETSYIEDNC [PAH_Y24]	0.466
KEEEDYREENN [BMS1_Y651_K652R]	0.601
EEGRVYVYRLS [ITGAE_Y549]	0.379
PESIPYRKFTT [NTRK1_Y701_L700P]	0.86
VRQQDYKKVEE [HADHA_Y283_V282D]	0.419
DPEATYTTSGG [EPHA2_Y772]	0.418
LRNRVYEVPVE [SLC26A3_Y756]	3.3
LIHLHYIRRDY [BBS4_Y43_K46R]	0.524
